- assayed.system: Nav 1.7 (Homo sapiens (Human), UniProt Q15858)
- Sequence (Q15858 whole entry): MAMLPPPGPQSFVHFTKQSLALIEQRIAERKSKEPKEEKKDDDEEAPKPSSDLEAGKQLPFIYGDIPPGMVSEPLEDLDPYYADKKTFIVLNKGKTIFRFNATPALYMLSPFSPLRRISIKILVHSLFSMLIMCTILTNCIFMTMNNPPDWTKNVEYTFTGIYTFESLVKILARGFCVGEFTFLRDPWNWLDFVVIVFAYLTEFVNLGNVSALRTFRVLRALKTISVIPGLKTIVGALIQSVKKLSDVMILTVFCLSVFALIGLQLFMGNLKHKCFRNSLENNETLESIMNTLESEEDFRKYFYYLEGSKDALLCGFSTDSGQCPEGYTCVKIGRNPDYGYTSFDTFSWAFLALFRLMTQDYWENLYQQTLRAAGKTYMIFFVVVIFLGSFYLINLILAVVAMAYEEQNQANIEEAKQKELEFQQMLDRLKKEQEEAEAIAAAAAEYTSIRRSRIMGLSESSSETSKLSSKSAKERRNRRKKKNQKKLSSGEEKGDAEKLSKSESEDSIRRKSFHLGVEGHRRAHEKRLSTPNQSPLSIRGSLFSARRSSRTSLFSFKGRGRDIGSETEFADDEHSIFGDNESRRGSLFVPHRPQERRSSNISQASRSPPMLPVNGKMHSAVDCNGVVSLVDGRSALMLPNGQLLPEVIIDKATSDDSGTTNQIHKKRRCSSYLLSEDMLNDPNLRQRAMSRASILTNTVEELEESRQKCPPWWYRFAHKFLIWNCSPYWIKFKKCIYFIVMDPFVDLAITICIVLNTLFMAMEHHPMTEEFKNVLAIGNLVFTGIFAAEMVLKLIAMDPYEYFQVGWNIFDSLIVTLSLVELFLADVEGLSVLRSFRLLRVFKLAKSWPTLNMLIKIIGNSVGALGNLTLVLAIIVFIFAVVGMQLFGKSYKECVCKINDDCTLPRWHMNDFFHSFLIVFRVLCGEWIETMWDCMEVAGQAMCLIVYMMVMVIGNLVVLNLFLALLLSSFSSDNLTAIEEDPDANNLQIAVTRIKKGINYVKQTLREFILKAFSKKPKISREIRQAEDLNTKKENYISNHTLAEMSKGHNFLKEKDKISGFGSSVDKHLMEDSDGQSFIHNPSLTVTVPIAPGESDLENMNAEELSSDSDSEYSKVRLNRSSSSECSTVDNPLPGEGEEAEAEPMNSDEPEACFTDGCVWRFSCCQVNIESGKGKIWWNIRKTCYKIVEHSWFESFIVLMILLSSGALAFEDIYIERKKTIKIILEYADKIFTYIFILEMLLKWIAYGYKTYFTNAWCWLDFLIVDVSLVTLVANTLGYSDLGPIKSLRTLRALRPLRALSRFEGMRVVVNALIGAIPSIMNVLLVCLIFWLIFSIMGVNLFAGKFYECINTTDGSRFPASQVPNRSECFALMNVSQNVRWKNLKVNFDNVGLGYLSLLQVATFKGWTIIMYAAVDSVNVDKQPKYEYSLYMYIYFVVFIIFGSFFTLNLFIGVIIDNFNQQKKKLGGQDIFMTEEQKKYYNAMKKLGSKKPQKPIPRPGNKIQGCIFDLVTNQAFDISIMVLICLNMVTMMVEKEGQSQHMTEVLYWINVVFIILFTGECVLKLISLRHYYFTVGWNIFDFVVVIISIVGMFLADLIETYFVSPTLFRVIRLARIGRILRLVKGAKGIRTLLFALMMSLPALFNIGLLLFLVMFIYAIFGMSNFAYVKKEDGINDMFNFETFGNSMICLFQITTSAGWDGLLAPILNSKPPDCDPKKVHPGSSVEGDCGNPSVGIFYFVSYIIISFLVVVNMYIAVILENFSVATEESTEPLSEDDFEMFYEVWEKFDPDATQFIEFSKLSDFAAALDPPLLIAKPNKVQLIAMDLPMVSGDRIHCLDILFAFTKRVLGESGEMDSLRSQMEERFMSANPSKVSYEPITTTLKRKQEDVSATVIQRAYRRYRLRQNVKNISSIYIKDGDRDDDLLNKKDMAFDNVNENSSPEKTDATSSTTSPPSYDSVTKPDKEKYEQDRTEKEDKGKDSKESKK
- test.protocol: in-vitro Nav 1.7 PX (IC50)
- Assay type: cell-based
- condition.description: in-vitro Nav 1.7 PX data
Each record here notes measured IC50.

| molecule | assayed.system | IC50 |
| --- | --- | --- |
| COc1ccc(-c2ccccc2Cl)cc1-n1c(=O)ccc2cc(S(=O)(=O)Nc3ccon3)ccc21 | Nav 1.7 (Homo sapiens (Human), UniProt Q15858) | 72 nM |
| COc1cc([C@H]2CC[C@@H](OC)CC2)c(F)cc1-n1c(=O)ccc2cc(S(=O)(=O)Nc3ccon3)ccc21 | Nav 1.7 (Homo sapiens (Human), UniProt Q15858) | 3910 nM |
| COc1cc(-c2cc(OC)c(-n3c(=O)ccc4cc(S(=O)(=O)Nc5cccnn5)ccc43)cc2F)ccc1F | Nav 1.7 (Homo sapiens (Human), UniProt Q15858) | 131 nM |
| COc1cc(-c2ccccc2Cl)c(F)cc1-n1c(=O)ccc2cc(S(=O)(=O)Nc3ccon3)ccc21 | Nav 1.7 (Homo sapiens (Human), UniProt Q15858) | 62 nM |
| COc1cc(-c2ccc(Cl)cc2)c(F)cc1-n1c(=O)ccc2cc(S(=O)(=O)Nc3ncccn3)ccc21 (atropisomer, axis not shown) | Nav 1.7 (Homo sapiens (Human), UniProt Q15858) | 28 nM |
| COc1cc(CC2CCC2)c(F)cc1-n1c(=O)ccc2cc(S(=O)(=O)Nc3ccon3)ccc21 | Nav 1.7 (Homo sapiens (Human), UniProt Q15858) | 69 nM |
| COc1cc(F)cc(-c2ccc(-n3c(=O)ccc4cc(S(=O)(=O)Nc5ccon5)ccc43)c(OC)c2)c1 | Nav 1.7 (Homo sapiens (Human), UniProt Q15858) | 13 nM |
